Data credit: ChEMBL document CHEMBL4330056

System: HL-60
test: Antiproliferative activity against human HL60 cells after 72 hrs by XTT assay
Type: functional, cell-based
test.settings: HL-60, 72 h
pIC50: −log10 of the molar value.

smiles.string: Nc1ncnc2c1c1occc1n2[C@@H]1O[C@H](CO)[C@@H](O)[C@H]1O
tested.on: HL-60
result.qualifier: =
pIC50: 6.29
--
smiles.string: CN(C)c1ncnc2c1c1c(ccn1C)n2[C@@H]1O[C@H](CO)[C@@H](O)[C@H]1O
tested.on: HL-60
result.qualifier: <
pIC50: 4.30
--
smiles.string: COc1ncnc2c1c1c(ccn1C)n2[C@@H]1O[C@H](CO)[C@@H](O)[C@H]1O
tested.on: HL-60
result.qualifier: =
pIC50: 5.84
--
smiles.string: CSc1ncnc2c1c1c(ccn1C)n2[C@@H]1O[C@H](CO)[C@@H](O)[C@H]1O
tested.on: HL-60
result.qualifier: =
pIC50: 6.24
--
smiles.string: CN(C)c1ncnc2c1c1occc1n2[C@@H]1O[C@H](CO)[C@@H](O)[C@H]1O
tested.on: HL-60
result.qualifier: <
pIC50: 4.30
--
smiles.string: Cn1ccc2c3c(-c4cc5ccccc5o4)ncnc3n([C@@H]3O[C@H](CO)[C@@H](O)[C@H]3O)c21
tested.on: HL-60
result.qualifier: <
pIC50: 4.30
--
smiles.string: Cn1ccc2c1c1c(-c3ccco3)ncnc1n2[C@@H]1O[C@H](CO)[C@@H](O)[C@H]1O
tested.on: HL-60
result.qualifier: <
pIC50: 4.30
--
smiles.string: Cn1ccc2c3c(N)ncnc3n([C@@H]3O[C@H](CO)[C@@H](O)[C@H]3O)c21
tested.on: HL-60
result.qualifier: <
pIC50: 4.30
--
smiles.string: Cc1ncnc2c1c1occc1n2[C@@H]1O[C@H](CO)[C@@H](O)[C@H]1O
tested.on: HL-60
result.qualifier: =
pIC50: 5.92

###

Examples of molecules with documented remaining at 0.5 h, 5 µM follow.
test: Metabolic stability in human liver microsomes assessed as compound remaining at 5 umol/L after 30 mins relative to control
Assay type: ADME, Microsome
test.settings: read-out: Stability

smiles.string: Cc1ncnc2c1c1occc1n2[C@@H]1O[C@H](CO)[C@@H](O)[C@H]1O
remaining at 0.5 h, 5 µM [%]: 99

smiles.string: CSc1ncnc2c1c1occc1n2[C@@H]1O[C@H](CO)[C@@H](O)[C@H]1O
remaining at 0.5 h, 5 µM [%]: 99

smiles.string: CSc1ncnc2c1c1c(ccn1C)n2[C@@H]1O[C@H](CO)[C@@H](O)[C@H]1O
remaining at 0.5 h, 5 µM [%]: 99

smiles.string: Cc1ncnc2c1c1c(ccn1C)n2[C@@H]1O[C@H](CO)[C@@H](O)[C@H]1O
remaining at 0.5 h, 5 µM [%]: 98

###

test: Stability in human plasma assessed as compound remaining at 3.3 umol/L after 30 mins by RF-MS analysis relative to control
Format: ADME, cell-free
test.settings: read-out: Stability
Measured remaining at 0.5 h, 3.3 µM accompanies every entry in the list below.

smiles.string: Cc1ncnc2c1c1occc1n2[C@@H]1O[C@H](CO)[C@@H](O)[C@H]1O
remaining at 0.5 h, 3.3 µM / %: 99
//
smiles.string: CSc1ncnc2c1c1occc1n2[C@@H]1O[C@H](CO)[C@@H](O)[C@H]1O
remaining at 0.5 h, 3.3 µM / %: 99
//
smiles.string: Cc1ncnc2c1c1c(ccn1C)n2[C@@H]1O[C@H](CO)[C@@H](O)[C@H]1O
remaining at 0.5 h, 3.3 µM / %: 83
//
smiles.string: CSc1ncnc2c1c1c(ccn1C)n2[C@@H]1O[C@H](CO)[C@@H](O)[C@H]1O
remaining at 0.5 h, 3.3 µM / %: 99
